Data credit: PubChem BioAssay (NCI)

- Tested on: NCI-H522 lung
- Measurement description: NCI-60 one-dose screen, 48 h (100 = growth as untreated, 0 = no growth, -100 = all killed)
- Condition context: 10 µM unless noted
Compounds without any hit were thinned out: in the full panel of roughly 83,000, 20% have a hit.
Tag: Yes if measured growth is not below 70%, No if it is.

[[record]]
smiles_representation = "O=C(Nc1ccc(Oc2cccc(Cl)c2)c(Cl)c1)c1cccnc1"
category = "No"

[[record]]
smiles_representation = "CNC(=O)c1ccccc1Oc1nc(Nc2cc(OC)c(OC)c(OC)c2)ncc1Br"
category = "No"

[[record]]
smiles_representation = "CN(C)Cc1ccc(O)c(C(=O)O)c1"
category = "Yes"

[[record]]
smiles_representation = "COc1ccc2c(c1OC)CO[C@@H]2[C@H]1c2c(cc3c(c2OC)OCO3)CCN1S(=O)(=O)c1cn(C)cn1"
category = "No"

[[record]]
smiles_representation = "N#Cc1nc(-c2ccc(Cl)cc2)oc1S(=O)(=O)N1CCN(c2ccc(F)cc2)CC1"
category = "No"

[[record]]
smiles_representation = "C=C1C(=O)O[C@H]2[C@H]1CC/C(COC(=O)C(=O)c1cn(C)c3ccc(Cl)cc13)=C\\CC[C@@]1(C)O[C@@H]21"
category = "No"

